- Test system: DU-145
- Assay Explanation: NCI tumour cell line growth inhibition, 48 h
Calls of active or inactive are those of the source. Rule as the data show it: active = GI50 up to about 1.1 µM and inactive = higher.
Pick from True for active, False for inactive when you respond.

Field: example entries. Status: answers known.
Molecule	Assigned Class
COC(=O)CCCc1c(-c2[nH]c3ccccc3c2CCCC(=O)OC)[nH]c2ccccc12	False
O=C1NC(c2ccccc2)N=C2Oc3ccccc3C=C12 (stereo unspecified)	True
COC(=O)NC(Nc1ccccn1)(C(F)(F)F)C(F)(F)F	False
Cc1ccc(/N=N/c2c(O)ccc3ccccc23)cc1	False
CCc1n[nH]c(=O)n1/N=C/c1ccccc1O	False

Shifting focus to the molecule that follows.
Recorded test call requested for "COc1ccc(CN2C(=O)C(=O)N(C)C2=O)c2ccccc12"
False

Values from ChEMBL document CHEMBL1201862
